# Test: small molecules captured by biotinylated probe aFGF10 – biochemical, small-molecule microarray, fluorescence 635/667, stem cell growth factor project, primary screen (AID 1071);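 also: score merges 667 nm spot intensity and signal to noise from triplicate slides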
# Condition: higher = more signal
Measured attribute: composite z-score
Output: the number by itself.

Some compounds with recorded composite z-score:
CCOC(=O)C1=CC[C@@H](c2ccccc2)N(S(=O)(=O)c2ccc(C)cc2)[C@H]1c1ccccc1I | 0.571
O=C1[C@@H]2[C@@H](CC(COc3ccccc3)=C([C@H](O)CCc3ccccc3)[C@@H]2CO)C(=O)N1Cc1ccccc1 | 0.0395
CN1C(=O)C2C(C1=O)C1C=C(c3ccc(CO)cc3)C2C(C2CC2)N1C (configuration not stated) | 0.0656
COCCOC(=O)N1C(=O)[C@@]2(c3cc(C#CCCO)ccc31)[C@H](C(N)=O)[C@H]1C(=O)O[C@H](c3ccccc3)[C@H](c3ccccc3)N1[C@@H]2c1ccccc1OCCO | 0.658
CC(C)C(=C=CC[C@H](O)c1ccccc1OCCO)C[C@H](O)c1cc(Cl)cc(Cl)c1O | 0.742

Q: Can you share its composite z-score? I mean this compound: "O=C(NC1CC1)[C@@H]1c2ccccc2C(=O)N(Cc2cc(C(F)(F)F)cc(C(F)(F)F)c2)[C@H]1c1ccc(CO)cc1"
Result: 0.0757

Q: Can you share its composite z-score? I mean this compound: "C[N+](C)(C)CCCC[C@@H]1NC(=O)[C@@H]2C[C@H](C(=O)NCc3ccc(F)cc3)[C@H](c3ccc(O)cc3)N2C1=O"
Result: -0.447

These data points were gathered from PubChem BioAssay.
